- method.summary: HIF pathway transcriptional activators, primary screen, cell-based, U2OS HRE-luciferase, luminescence (AID 1910)
- conditions: U2OS HRE-luciferase reporter, hits give high values, screened at 7.5 µM (by protocol), normalized: DMSO 0%, desferrioxamine 100%
The whole screen tested about 300,000 compounds, of which about 950 (0.32%) were called active. Many of the other results were omitted from the sample, so actives are more common in it than they were.
Reported activation values are given for each entry in this list.

compound: CC(=O)NCCC(=O)Nc1cc(S(=O)(=O)N2CCOCC2)ccc1N1CCOCC1
measurement.unit: %
activation: 158
--
compound: COc1cc(CN2CCC(C(N)=O)CC2)ccc1OCc1ccccc1
measurement.unit: %
activation: 5.51
--
compound: N#CCC(=O)N/N=C/c1ccc(SCC(=O)Nc2ccccc2)o1
measurement.unit: %
activation: 105
--
compound: COc1cc(C2CC(=O)N3CN(Cc4ccccc4)CSC3=C2C#N)ccc1OCc1ccccc1 (stereo unspecified)
measurement.unit: %
activation: 227
--
compound: Cc1cccc(OCCC(=O)Nc2cc(S(=O)(=O)N3CCCCC3)ccc2N2CCOCC2)c1
measurement.unit: %
activation: -0.617
--
compound: CCNS(=O)(=O)c1ccc(NC(=O)c2cncc(Br)c2)cc1
measurement.unit: %
activation: 94.2

###

- method.summary: HIF pathway transcriptional activators, primary screen, cell-based, U2OS HRE-luciferase, luminescence (AID 1910)
- conditions: U2OS HRE-luciferase reporter, hits give high values, screened at 7.5 µM (by protocol), normalized: DMSO 0%, desferrioxamine 100%
About 950 (0.32%) of roughly 300,000 compounds were called active. The list comes from a sample in which actives are over-represented; it also holds close analogues and randomly drawn compounds.
Reported activation values are given for each entry in this list.

smiles.structure: COc1ccc(N2C(=O)CNC2=S)cc1
activation, %: -0.317
//
smiles.structure: Nc1nc(NCCCN2CCOCC2)nc(Nc2ccccc2)c1[N+](=O)[O-]
activation, %: -0.302
//
smiles.structure: COc1ccc(-n2c(-c3ccc(OC)c(OC)c3)n[nH]c2=S)cc1
activation, %: 1.1
//
smiles.structure: Cc1ccccc1N1CCN(Cc2nc(Cc3ccccc3F)no2)CC1
activation, %: 0.117
//
smiles.structure: O=C(CCNC(=O)c1ccc(Br)cc1)NCCCc1ccccc1
activation, %: 0.558

###

- method.summary: HIF pathway transcriptional activators, primary screen, cell-based, U2OS HRE-luciferase, luminescence (AID 1910)
- conditions: U2OS HRE-luciferase reporter, hits give high values, screened at 7.5 µM (by protocol), normalized: DMSO 0%, desferrioxamine 100%
Among all 300,000 compounds or so, about 950 (0.32%) were called active. Many of the other results were omitted from the sample, so actives are more common in it than they were.
metric.name: activation

compound: c1ccc(-c2nc(NCc3ccco3)c3ccccc3n2)cc1
recorded.measurement: 0.461% (inactive)
//
compound: Oc1ccc(Br)cc1/C=N/Nc1ccccn1
recorded.measurement: 90.5% (active)
//
compound: CC1CC(C)CN(CCCNC(=O)Cn2ncc3c([nH]c4ccccc43)c2=O)C1 (stereo not given)
recorded.measurement: -0.555% (inactive)
//
compound: O=C(Nc1ncccc1O)c1ccc(S(=O)(=O)N2CCCC2)cc1
recorded.measurement: 4.15% (inactive)
//
compound: Cc1nn(C)cc1C(=O)c1ccccc1
recorded.measurement: 0.273% (inactive)
//
compound: Cc1cc(N2CCN(c3ccccc3)CC2)nc(N2CCOCC2)n1
recorded.measurement: -0.818% (inactive)
//
compound: C/C=C/c1ccc(OCC(=O)OCC(=O)Nc2c(C)nn(-c3ccccc3)c2C)c(OC)c1
recorded.measurement: 0.205% (inactive)
//
compound: Cc1cc(Nc2ccc(Cl)cc2)nc(N2CCOCC2)n1
recorded.measurement: 0.664% (inactive)
//
compound: CS(=O)(=O)n1nc(-c2ccccc2)nc1NCc1ccco1
recorded.measurement: 16.1% (active)
//
compound: O=C(Cc1ccccc1)n1nc(-c2ccccc2)nc1NCc1ccco1
recorded.measurement: 1.38% (inactive)
//
compound: O=C(CSCc1ccc(Br)cc1)Nc1ccc(S(=O)(=O)N2CCCCCC2)cc1
recorded.measurement: -0.637% (inactive)
//
compound: COc1ccc(C(CNC(=O)c2cccc(NS(=O)(=O)c3ccc(C)c(F)c3)c2)N2CCCC2)cc1 (stereo not given)
recorded.measurement: -0.102% (inactive)
//
compound: O=C(CCCCO)c1ccc(O)c(Cl)c1
recorded.measurement: -0.731% (inactive)
//
compound: Cc1cccc(C(=O)OC(C)CN2CCN(C)CC2)c1 (stereo not given)
recorded.measurement: 3.11% (inactive)
//
compound: Nc1nonc1-n1nnc(C(=O)N/N=C/c2cc(Br)ccc2O)c1CSC1=NCCS1
recorded.measurement: 20.7% (active)
//
compound: Cc1cc(Oc2ccccc2)nc(N2CCOCC2)n1
recorded.measurement: 686% (active)
//
compound: O=[N+]([O-])c1ccc(O)c(/C=N/Nc2ccccc2[N+](=O)[O-])c1
recorded.measurement: 1.42% (inactive)
//
compound: Cc1cccc(C(=O)OC(C)C(=O)NC2CCCc3ccccc32)c1O (stereo not given)
recorded.measurement: -0.427% (inactive)
//
compound: O=C(Nc1ccc(F)c([N+](=O)[O-])c1)C1CCCO1 (stereo not given)
recorded.measurement: -0.403% (inactive)
//
compound: CC(=O)N1CCN(CCN=CC2=C(O)CC(C)(C)CC2=O)CC1
recorded.measurement: -0.482% (inactive)
//
compound: Cc1ccc2[nH]c3c(=O)n(CC(=O)NCCc4ccc(Cl)cc4)ncc3c2c1
recorded.measurement: 0.0828% (inactive)
//
compound: COc1cc(NC(=O)C2CC(c3ccccc3O)=NO2)c(OC)cc1Cl (stereo not given)
recorded.measurement: -1.02% (inactive)
//
compound: CCNC(=S)N1CCN(CCN=CC2=C(O)CC(C)(C)CC2=O)CC1
recorded.measurement: -0.656% (inactive)
//
compound: Nc1nonc1-n1nnc(C(=O)N/N=C/c2ccccc2O)c1CN1CCCC1
recorded.measurement: -0.146% (inactive)
//
compound: O=C(NCCCN1CCOCC1)c1cc(-c2ccccc2F)no1
recorded.measurement: 10.1% (active)
//
compound: COc1ccc(C(=O)N2CCC(C(=O)Nc3ccc(C)cc3)CC2)cc1
recorded.measurement: 0.165% (inactive)
//
compound: N#Cc1cccc(Nc2c3c(nc4ccccc24)CCCC3)c1
recorded.measurement: -0.204% (inactive)
//
compound: COc1cccc(N2CC(C(=O)NCc3n[nH]c(=O)c4ccccc34)CC2=O)c1 (stereo not given)
recorded.measurement: 3.45% (inactive)
//
compound: NS(=O)(=O)c1cc(C(=O)OCC(=O)NNC(=O)c2ccccc2)ccc1Cl
recorded.measurement: 0.0895% (inactive)
//
compound: COc1ccccc1NC(=O)Nc1nc(CC(=O)Nc2ccccc2F)cs1
recorded.measurement: -0.165% (inactive)
